Across several studies, molecules have been characterized by their pIC50 on Epidermal growth factor receptor (Homo sapiens, UniProt P00533); a selection follows.
pIC50: −log10 of the molar value.
Classification field: 1 = pIC50 at or over 8; -1 = pIC50 under 8.

Observe how each entry below is paired with its result.
Molecular String: COc1cc(N2CCC(N3CCN(C)CC3)CC2)ccc1Nc1ncc(F)c(Nc2cccc3c2N(S(C)(=O)=O)CC3)n1
Assigned Class: 1
--
Molecular String: COc1cc(N2CCC(N3CCN(C)CC3)CC2)ccc1Nc1nc(Nc2cccc3c2N(S(C)(=O)=O)CC3)c2c(Cl)c[nH]c2n1
Assigned Class: 1
--
Molecular String: CC(C)Oc1nn(CCO)c2c1/C=C/c1n[nH]c3ccc(cc13)-c1cnn(C)c1O[C@@H](CO)CN(C)C2
Assigned Class: 1
--
Molecular String: C#Cc1cccc(Nc2ncnc3nc(Nc4ccc(CN5CCOCC5)cc4)sc23)c1
Assigned Class: -1
--
Molecular String: COc1cc(N2CCN(CCS(C)(=O)=O)CC2)c(C)cc1Nc1nccc(-c2sc(C3CCCC3)nc2-c2cccc(NS(=O)(=O)c3c(F)cccc3F)c2)n1
Assigned Class: -1
--
Molecular String: CCn1ncc2c1O[C@@H](C)CN(C)Cc1c(c(OC(C)C)nn1CCO)/C=C/c1n[nH]c3ccc-2cc13
Assigned Class: -1
--
Molecular String: CC#CC(=O)N1CCC[C@@H](Nc2n[nH]c3nccc(Oc4ccc(C(=O)Nc5cc(C)ccn5)cc4)c23)C1
Assigned Class: -1
--
Molecular String: CC(C)Oc1nn(CCO)c2c1/C=C/c1n[nH]c3ccc(cc13)-c1cnn(C)c1O[C@@H](C)CN(C)[C@@H]2C
Assigned Class: -1
--
Molecular String: Cc1cc(Nc2ncc(Cl)c(Nc3ccccc3P(C)(C)=O)n2)ccc1N1CCC2(CC1)CC(N)C2
Assigned Class: -1
--
Molecular String: Oc1ccc(Nc2nc3ncnc(Nc4ccc(F)c(Cl)c4)c3s2)cc1
Assigned Class: -1

Q: Assess whether reported pIC50 for `C=CS(=O)(=O)Nc1cccc(Nc2cc(Oc3cccc(C(F)(F)F)c3)ncn2)c1` sits at 8 or higher.
Ans: 1

Q: Query `CCNC(=O)N1CCC[C@@H](Nc2n[nH]c3nccc(Oc4ccc(-c5nc6ccccc6[nH]5)cc4)c23)C1` next
Ans: -1
